conditions: buffer; pH 7.4; 200.0 µM
Listing: solubility kinetic of selected compounds
Report the value in µg/mL with no unit label.

Solved cases (3 shown):
{"columns": ["compound", "unit-string", "recorded-result"],
 "data": [
  ["O=C(CNC(=O)c1ccc(Cl)cc1Cl)OCc1cn2cc(Br)ccc2n1", "µg/mL", 29.7],
  ["CCOc1ccccc1N1CCN(C(=O)c2ccc3nc(N)sc3c2)CC1", "µg/mL", 7.5],
  ["COC(=O)C1=C(N)Oc2cc(C)[nH]c(=O)c2C1c1ccccc1OC (configuration not stated)", "µg/mL", 46.5]
]}

(Q) Which solubility kinetic is listed for O=C(OCC(=O)N1CCCC1)c1ccccc1O ?
(A) 36.1

(Q) Then what about the compound CC1CCN(C(=O)CNC(=O)Cc2ccccc2)CC1 ?
(A) 40.9

###

// solubility kinetic lookup, one value per entry
settings: buffer; pH 7.4; 200.0 µM

Example entries and their recorded answers appear below.
{"columns": ["compound", "readout", "recorded-result"],
 "data": [
  ["O=C(C(=O)N1CCCCCC1)c1c[nH]c2ccccc12", "solubility kinetic", "> 40.5 µg/mL"],
  ["CC1CN(c2nc(Nc3ccccc3)nc(N)c2[N+](=O)[O-])CC(C)O1 (stereo unspecified)", "solubility kinetic", "48.1 µg/mL"]
]}

(Q) Give its solubility kinetic value. Item: O=C(C1CC1)N1CCN(Cc2ccccc2)CC1
(A) 33.5 µg/mL

(Q) Check COc1cccc(NC(=O)CN(C)C(=O)[C@@H]2CCCN2C(=O)c2cccs2)c1 too.
(A) > 60.2 µg/mL

(Q) One more compound: O=C(c1ccncc1)N1CCN(S(=O)(=O)c2ccc(F)cc2)CC1
(A) > 52.4 µg/mL

(Q) Next up: Cn1c(=O)c([N+](=O)[O-])c(NCC2CCCO2)c2ccccc21 (stereo unspecified)
(A) > 45.5 µg/mL

###

conditions: buffer; pH 7.4; 200.0 µM
List of solubility kinetic values.

{"columns": ["molecule", "solubility kinetic"],
 "data": [
  ["CCCn1c(COc2ccccc2)nc2ccccc21", "0.0374 mg/mL"],
  ["O=C(O)CCCC(=O)Nc1nncs1", "> 0.0323 mg/mL"],
  ["Cc1ccc(N2C(=O)CN(Cc3cccs3)C2=S)cc1C", "< 0.0003 mg/mL"],
  ["COCCNC(=O)CN1C(=O)c2cccc3cccc1c23", "> 0.0426 mg/mL"]
]}

(Q) Give the measured solubility kinetic of C(=C\c1ccc2ccccc2n1)/c1ccccc1 .
(A) 0.0005 mg/mL

(Q) Next molecule: CC1CN=C(NCc2ccccc2Cl)S1 (configuration not stated)
(A) > 0.0361 mg/mL

(Q) Another: Cc1ccc2c(c1)N(CC(=O)N1CCCCCC1)C(=O)C(C)O2 (configuration not stated)
(A) > 0.0475 mg/mL

###

# reported solubility kinetic; entries follow
conditions: buffer; pH 7.4; 200.0 µM
Lab book: enter the figure in µg/mL, no units written.

Below, 3 compounds whose answers are already recorded.
{"columns": ["compound", "solubility kinetic (µg/mL)"],
 "data": [
  ["CC1CN(C)C(C)CC1OC(=O)C(c1ccccc1)c1ccccc1 (centres undefined)", 42.1],
  ["O=C(COC(=O)c1ccc(F)cc1)NCC1CCCCC1", 9.4],
  ["COc1ccccc1CC(=O)NC12CC3CC(CC(C3)C1)C2", 7.8]
]}

(Q) Name the recorded solubility kinetic for COc1ccc(CCCC(=O)Nc2cc(C)ccc2OC)cc1 .
(A) 20

(Q) Entry to check: N#Cc1c(N)n(-c2cccc(O)c2)c2nc3ccccc3nc12
(A) 6.4

(Q) Proceed to CCOc1ccc(C(C)=O)cc1CN1C(=O)NC(C)(C2CC2)C1=O (centres undefined)
(A) 41.3

(Q) Try this compound too: CCN(CC)S(=O)(=O)c1ccc(C(=O)NC2=NCCS2)cc1
(A) 2.3

(Q) Now the same for COC(=O)c1sccc1NC(=S)N(C)C1CCCCC1
(A) 0.4

(Q) Please give the result for COC(=O)c1cc(-c2cccc([N+](=O)[O-])c2)c2c(=O)[nH]c(=O)n(C)c2n1 too.
(A) 1.1

(Q) Further, for CCOc1cc(CNCc2ccccn2)cc(Cl)c1OCC.Cl ?
(A) 35.5

(Q) Again, but for COc1cc2c(cc1OC)CN(Cc1ccc(C)cc1)CC2
(A) 35.1

(Q) Same question for COc1ccc(Cn2c(C)nc3c(c(=O)c4ccccc4n3C)c2=O)cc1 please.
(A) 0.7

(Q) How about CC(NC(=S)Nc1ccc(OC(F)F)c(Cl)c1)C(C)(C)C (centres undefined) ?
(A) 2.3

(Q) Also CCC(C)NC(=O)COc1ccc(OCc2ccccc2)cc1 (centres undefined) , if possible.
(A) 4.8

(Q) // next record C=CCn1c(COc2ccccc2OC)nc2ccccc21
(A) 10.2

(Q) Another compound: O=S(=O)(NC1CC2CCC1C2)c1ccc(Cl)cc1 (centres undefined)
(A) 38.4
